biological target: T1, cynomolgus CD40 extracellular domain (ECD) (cynomolgus); test: SPR (IBIS MX96), antibody captured, monovalent CD40 ECD in solution
T1 construct: extracellular domain; also called Cynomolgus CD40 ECD
Measured kon of individual entries
The reply should contain only the number, in M⁻¹ s⁻¹.

Consider the reported kon for these binders:
* antibody 15833 (antibody, human IgG1, kappa, L234A L235A, V domains shown, Fully human IgG1-LALA / kappa) VH: QVQLVESGGGVVQPGRSLRLSCAASGFTFSNYAMHWVRQAPGKGLEWVALISFDGSYKYYADSVKGRFTISRDNSKNTLYLQMNSLRAEDTAVYYCVKDAGYSSSWFFDYWGQGTLVTVSS VL: DIQMTQSPSSVSASVGDRVTITCRASQDISSWLAWYQQKPGKAPKLLIYAASSLQSGVPSRFSGSGSGTDFTLTISSLQPEDFGNYYCQQANSFPWTFGQGTKVEIKR | 80000
* antibody 16154 (antibody, human IgG1, kappa, L234A L235A, V domains shown, Fully human IgG1-LALA / kappa) VH: EVQLVESGGGLVQPGGSLRLSCAASGFTFTSYWMSWVRQAPGKGLEWVANIKQDGSEKYYVDSVKGRFTISRDNAKNSLYLQMNSLRAEDTAVYYCARGPVAGPYWYFDLWGRGTLVTVSS VL: AIQMTQSPSSLSASVGDRVTITCRASQGIRNDLGWYQQKPGKAPKLLIYAASSLQSGVPSRFSGSGSGTDFTLTISSLQPEDFATYYCLQDYHYPLTFGGGTKVEIKR | 110000
* antibody 15948 (antibody, human IgG1, kappa, L234A L235A, V domains shown, Fully human IgG1-LALA / kappa) VH: QVQLVESGGGVVQPGRSLRLSCAASGFTFSIYGMHWVRQAPGKGLEWVAVISYDGSNKYYADSVKGRFTISRDNSKNTLYLQMNSLRAEDTAVYYCAKDPDYYGSGSYYPDWGQGTLVTVSS VL: DIQLTQSPSFLSASVGDRVTITCRASQGISSYLAWYQQKPGKAPKLLIYAASTLQSGVPSRFSGSGSGTEFTLTISSLQPEDFATYYCQQVKSYPLTFGGGTKVEIKR | 37000

Turning now to a further binder:
Query block: Provide kon value for the following binder: antibody 16040 (antibody, human IgG1, kappa, L234A L235A, V domains shown, Fully human IgG1-LALA / kappa) VH: QVQLVESGGGVVQPGRSLRLSCAASGFTFSIYGMHWVRQAPGKGLEWVAVISYDGSNKYYADSVKGRFTISRDNSKNTLYLQMNSLRAEDTAVYYCAAGNWFDPWGQGTLVTVSS VL: DIQLTQSPSFLSASVGDRVTITCRASQGISSYLAWYQQKPGKAPKLLIYAASTLQSGVPSRFSGSGSGTEFTLTISSLQPEDFATYYCQQLNRYPLTFGGGTKVEIKR
Result block: 81000
